From: patent US5473074A

Target: calf thymus ADPRT (Bos taurus)
Sequence (P18493 whole entry): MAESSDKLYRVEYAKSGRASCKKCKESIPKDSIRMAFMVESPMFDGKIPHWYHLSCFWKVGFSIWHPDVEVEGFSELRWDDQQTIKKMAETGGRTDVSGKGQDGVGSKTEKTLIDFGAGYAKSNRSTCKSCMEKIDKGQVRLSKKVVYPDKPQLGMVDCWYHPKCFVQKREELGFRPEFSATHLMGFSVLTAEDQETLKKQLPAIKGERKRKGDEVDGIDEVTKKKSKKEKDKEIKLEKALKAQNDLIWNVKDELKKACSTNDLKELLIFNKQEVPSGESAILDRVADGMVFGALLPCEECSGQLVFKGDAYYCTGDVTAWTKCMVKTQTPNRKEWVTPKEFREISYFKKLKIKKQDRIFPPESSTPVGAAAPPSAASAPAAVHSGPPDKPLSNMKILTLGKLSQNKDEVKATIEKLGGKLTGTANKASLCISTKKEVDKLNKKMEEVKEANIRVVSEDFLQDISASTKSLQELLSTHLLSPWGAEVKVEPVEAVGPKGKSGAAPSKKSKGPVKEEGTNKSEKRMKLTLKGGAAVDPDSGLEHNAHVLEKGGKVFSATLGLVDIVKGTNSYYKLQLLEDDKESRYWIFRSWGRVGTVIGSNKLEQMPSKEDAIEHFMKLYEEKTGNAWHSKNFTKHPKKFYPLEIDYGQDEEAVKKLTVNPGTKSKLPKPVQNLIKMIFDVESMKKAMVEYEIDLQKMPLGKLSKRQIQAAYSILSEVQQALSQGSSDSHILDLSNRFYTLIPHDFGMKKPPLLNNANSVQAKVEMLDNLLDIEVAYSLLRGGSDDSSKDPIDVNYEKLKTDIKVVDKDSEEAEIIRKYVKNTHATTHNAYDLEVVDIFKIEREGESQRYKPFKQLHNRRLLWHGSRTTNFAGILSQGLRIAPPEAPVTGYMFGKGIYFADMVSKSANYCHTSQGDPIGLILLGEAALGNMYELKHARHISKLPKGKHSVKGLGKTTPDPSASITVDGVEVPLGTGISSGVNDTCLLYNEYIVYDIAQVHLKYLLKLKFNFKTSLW
Would you mind telling me the reported log10 of IC50 of each entry?
Answers are given as log10 of IC50 in µM.

Entry NC(=O)c1cccc(N=O)c1 [NOBA, 3-nitrosobenzamide] — recorded log10 of IC50 = 1.18

Entry `Nc1ccc2oc(=O)ccc2c1` — recorded log10 of IC50 = 2.57

Entry `O=Nc1ccc2oc(=O)ccc2c1I` — recorded log10 of IC50 = 2.60

Entry `O=Nc1ccc2oc(=O)ccc2c1` — recorded log10 of IC50 = 1.60

Entry `Nc1ccc2oc(=O)ccc2c1I` — recorded log10 of IC50 = 1.61

###

Assay: PHA-PBL viability (MTT dye reduction)
Assay type: cell-based
Details: human, read-out: concentration tolerated by human lymphocytes without major changes in cell metabolism
Procedure: PHA-PBL (10^6 /ml) were treated with increasing doses of NOBA for 24 hours in the presence of MTT substrate and the relative absorbance at 550 nm reflects the metabolic activity of the cells. The level of product formation in the absence of NOBA was considered to be 100% and all experimental values were normalized to that control value. Experiments were performed in which the incubations with NOBA was carried out at 0°, 22°, and 37° C. […]
experimental-readout: MNTC at 24 h

Entry NC(=O)c1cccc(N=O)c1 [NOBA, 3-nitrosobenzamide] — recorded MNTC at 24 h = ≥ 50 µM
